- System Under Test: T1, FZD8 cysteine-rich domain (CRD), MYC-tagged and GPI-anchored on CHO cells (human, UniProt Q498S8 31-155 (rat entry), GPI anchor)
- T1 construct: also called FZD8 CRD; CHO-myc-FZDGPI; not shown: MYC tag and GPI anchor signal
- T1 sequence: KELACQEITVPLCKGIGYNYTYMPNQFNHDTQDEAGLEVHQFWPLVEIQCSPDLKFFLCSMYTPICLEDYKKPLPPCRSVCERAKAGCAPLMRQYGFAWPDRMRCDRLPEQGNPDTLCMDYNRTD
- Protocol Summary: flow cytometry, CHO-CRD cells;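 note: flow cytometry of Fab binding to CHO cells overexpressing a Frizzled CRD, with binding defined as median fluorescence over twice that of CHO cells lacking any Frizzled CRD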
median fluorescence: recorded values
Kindly provide the number alone.

See these solved cases before continuing.
binder="Fab-2914 (Fab, V domains shown, Fab; also called Fv-2914) VH: EVQLVESGGGLVQPGGSLRLSCAASGFNIYYSYMHWVRQAPGKGLEWVASIYPSSSSTSYADSVKGRFTISADTSKNTAYLQMNSLRAEDTAVYYCARGAMDYWGQGTLVTVSS VL: DIQMTQSPSSLSASVGDRVTITCRASQSVSSAVAWYQQKPGKAPKLLIYSASSLYSGVPSRFSGSRSGTDFTLTISSLQPEDFATYYCQQWYYGSLITFGQGTKVEIK" assay_endpoint="median fluorescence" test_value=8.9
binder="Fab-2933 (Fab, V domains shown, Fab; also called Fv-2933) VH: EVQLVESGGGLVQPGGSLRLSCAASGFNLYSSYMHWVRQAPGKGLEWVASIYSSYGYTSYADSVKGRFTISADTSKNTAYLQMNSLRAEDTAVYYCARTVRGSKKPYFSGWAMDYWGQGTLVTVSS VL: DIQMTQSPSSLSASVGDRVTITCRASQSVSSAVAWYQQKPGKAPKLLIYSASSLYSGVPSRFSGSRSGTDFTLTISSLQPEDFATYYCQQFWWYASWLFTFGQGTKVEIK" assay_endpoint="median fluorescence" test_value=26.7

Ask: Suppose we examine the binder Fab-2911 (Fab, V domains shown, Fab; also called Fv-2911) VH: EVQLVESGGGLVQPGGSLRLSCAASGFNIYYSSMHWVRQAPGKGLEWVAYIYPYSGYTSYADSVKGRFTISADTSKNTAYLQMNSLRAEDTAVYYCARYFWWYGFDYWGQGTLVTVSS VL: DIQMTQSPSSLSASVGDRVTITCRASQSVSSAVAWYQQKPGKAPKLLIYSASSLYSGVPSRFSGSRSGTDFTLTISSLQPEDFATYYCQQGPWYPFTFGQGTKVEIK ; what median fluorescence value has been reported?
Reply: 7.43
